# EXPERIMENTAL_SYSTEM: recombinant autotaxin (Homo sapiens)
# ASSAY_TEXT: Autotaxin test (enzyme test), Amplex Red fluorescence with LPC substrate
# CONDITION_NOTES: autotaxin inhibition (enzyme test)
pIC50: −log10 of the molar value.
Each entry below carries its recorded pIC50.

In the examples that follow, each entry is paired with its recorded pIC50.
* O=C1Nc2ccc(-c3ccc(Cl)cc3F)cc2C(=O)N2CCN(C(=O)[C@@H]3CCCN3C3CCNCC3)CC12 (stereo partly shown) | < 6.00
* CC1(C)SCN[C@@H]1C(=O)N1CCN2C(=O)c3cc(-c4ccc(Cl)cc4F)ccc3NC(=O)C2C1 (stereo partly shown) | 6.00 to 7.00
* O=C1Nc2ccc(-c3ccc(Cl)cc3)cc2C(=O)N2CCN(C(=O)Cc3ccccn3)CC12 (stereo not shown) | < 6.00
* CN(C)CCN1CCC[C@H]1C(=O)N1CCN2C(=O)c3cc(-c4ccc(Cl)cc4F)ccc3NC(=O)C2C1 (stereo partly shown) | < 6.00
* CC(C)(C)[C@H](O)C(=O)N1CCN2C(=O)c3cc(-c4ccc(Cl)cc4)ccc3NC(=O)C2C1 (stereo partly shown) | 6.00 to 7.00

IN: Enter measured pIC50, system recombinant autotaxin (Homo sapiens), for the compound shown: O=C1Nc2ccc(-c3ccc(Cl)cc3F)cc2C(=O)N2CCN(C(=O)[C@@H]3C[C@@H](O)CN3)CC12 (stereo partly shown)
OUT: < 6.00

IN: Enter measured pIC50, system recombinant autotaxin (Homo sapiens), for the compound shown: "CC(C)(C)[C@H](O)C(=O)N1CCN2C(=O)c3cc(-c4ccc(Cl)cc4F)ccc3NC(=O)[C@H]2C1"
OUT: 6.00 to 7.00

IN: Enter measured pIC50, system recombinant autotaxin (Homo sapiens), for the compound shown: "Cn1cc(CCC(=O)N2CCN3C(=O)c4cc(-c5ccc(Cl)cc5F)ccc4NC(=O)[C@@H]3C2)cn1"
OUT: < 6.00

###

# EXPERIMENTAL_SYSTEM: recombinant autotaxin (Homo sapiens, UniProt Q13822)
# Construct: made in house; host or cells: Hi5 insect cells (baculovirus)
# ASSAY_TEXT: Autotaxin test (enzyme test), Amplex Red fluorescence with LPC substrate
# Type: biochemical
# CONDITION_NOTES: 10 μM compound; autotaxin inhibition (enzyme test); read-out: % Control at 10 μM
# Protocol: Autotaxin Inhibition (Enzyme Test) Autotaxin Test (Enzyme Test) The autotaxin activity is measured indirectly using Amplex Red reagent. Amplex Red is measured here as fluorogenic indicator for the H2O2 formed. […] The fluorescence is measured in a reaction-dependent kinetic mode in order that fluorescent signals from possible other fluorescent substances which are not involved in the reaction can be corrected out. […]
Please assign n whenever remaining activity at 10 µM is at or above 40%, and y whenever it is below.

Examples with answers:
* CC(C)(C)C(=O)N1CCN2C(=O)c3cc(-c4ccc(Cl)cc4)ccc3NC(=O)C2C1 (stereo not drawn) | y
* CC(C)(C)[C@H](NC1CCNCC1)C(=O)N1CCN[C@@H](C(=O)Nc2ccc(-c3ccc(Cl)cc3F)cc2C(=O)O)C1 | y
* O=C1Nc2ccc(-c3ccc4c(c3)OCO4)cc2C(=O)N2CCN(C(=O)c3cccnc3)C[C@H]12 | n
* NCCN1CCC[C@H]1C(=O)N1CCN2C(=O)c3cc(-c4ccc(Cl)cc4F)ccc3NC(=O)[C@H]2C1 | n
* CN(C)c1ccc(C(=O)N2CCN3C(=O)c4cc(-c5ccc(Cl)cc5)ccc4NC(=O)[C@H]3C2)cc1 | n

IN: Check if remaining activity at 10 µM falls below 40% for Cc1ccc(-c2ccc3c(c2)C(=O)N2CCN(C(=O)CC(C)(C)C)CC2C(=O)N3)c(F)c1F (stereo not drawn) .
OUT: y

IN: Check if remaining activity at 10 µM falls below 40% for O=C1Nc2ccc(-c3ccccc3F)cc2C(=O)N2CCN(C(=O)CCc3ccccn3)CC12 (stereo not drawn) .
OUT: n

IN: Check if remaining activity at 10 µM falls below 40% for "O=C1Nc2ccc(-c3ccccc3)cc2C(=O)N2CCN(C(=O)C3CCCCC3)C[C@H]12" .
OUT: n

IN: Check if remaining activity at 10 µM falls below 40% for "O=C([C@@H]1CCCN1C1CCNCC1)N1CCN2C(=O)c3cc(-c4ccc(Cl)cc4F)ccc3N(CCC3CCNCC3)C(=O)[C@H]2C1" .
OUT: y

IN: Check if remaining activity at 10 µM falls below 40% for O=C1Nc2ccc(-c3ccc(Cl)cc3)cc2C(=O)N2CCN(C(=O)Cc3ccccc3)CC12 (stereo not drawn) .
OUT: n

IN: Check if remaining activity at 10 µM falls below 40% for CC(C)[C@@H](O)C(=O)N1CCN2C(=O)c3cc(-c4ccc(Cl)cc4F)ccc3NC(=O)C2C1 (stereo partly drawn) .
OUT: y

IN: Check if remaining activity at 10 µM falls below 40% for "O=C1Nc2ccc(-c3cccc(C(F)(F)F)c3)cc2C(=O)N2CCN(C(=O)c3ccccc3)C[C@H]12" .
OUT: n

IN: Check if remaining activity at 10 µM falls below 40% for CC(C)(C)CC(=O)N1CCN2C(=O)c3cc(-c4ccc(Cl)cc4Cl)ccc3NC(=O)C2C1 (stereo not drawn) .
OUT: y

IN: Check if remaining activity at 10 µM falls below 40% for "O=C(O)CCCC(=O)N1CCN2C(=O)c3cc(-c4ccco4)ccc3NC(=O)[C@H]2C1" .
OUT: n

IN: Check if remaining activity at 10 µM falls below 40% for "O=C([C@@H]1CCCN1C1CCNCC1)N1CCN2C(=O)c3cc(-c4ccc(Cl)cc4F)ccc3N(CCN3CCOCC3)C(=O)[C@H]2C1" .
OUT: y

###

# EXPERIMENTAL_SYSTEM: recombinant autotaxin (Homo sapiens)
# Construct: made in house; host or cells: Hi5 insect cells (baculovirus)
# ASSAY_TEXT: Autotaxin test (enzyme test), Amplex Red fluorescence with LPC substrate
# Assay type: biochemical
# CONDITION_NOTES: 10 μM compound; autotaxin inhibition (enzyme test); read-out: % Control at 10 μM
PROPERTY_MEASURED: remaining activity at 10 µM (%)
Express it in %; write the number only.

In the examples that follow, each entry is paired with its recorded remaining activity at 10 µM.
* CCCc1nn(C)cc1C(=O)N1CCN2C(=O)c3cc(-c4ccc(Cl)cc4)ccc3NC(=O)C2C1 (stereo not shown) [Compound A23] | 54
* CN(C)CCN1C(=O)[C@@H]2CN(C(=O)CC(C)(C)C)CCN2C(=O)c2cc(-c3ccc(Cl)cc3F)ccc21 [Compound A163] | 10
* CC(C)(C)CC(=O)N1CCN2C(=O)c3cc(-c4cccc(F)c4F)ccc3NC(=O)C2C1 (stereo not shown) [Compound A88] | -6

IN: In one line, give reported remaining activity at 10 µM of the entry CC(C)(C)[C@H](N)C(=O)N1CCN2C(=O)c3cc(-c4ccc(Cl)cc4)ccc3NC(=O)C2C1 (stereo partly shown) [Compound A137] .
OUT: -18

IN: In one line, give reported remaining activity at 10 µM of the entry CN1CCN(C(=O)CN2C(=O)[C@@H]3CN(C(=O)CC(C)(C)C)CCN3C(=O)c3cc(-c4ccc(Cl)cc4F)ccc32)CC1 [Compound A162] .
OUT: 30

IN: In one line, give reported remaining activity at 10 µM of the entry O=C1Nc2ccc(-c3ccc(Cl)cc3)cc2C(=O)N2CCN(C(=O)C(O)c3cccc(C(F)(F)F)c3)CC12 (stereo not shown) [Compound A45] .
OUT: 61

IN: In one line, give reported remaining activity at 10 µM of the entry CC(C)(C)CC(=O)N1CCN2C(=O)c3cc(-c4ccc(F)cc4F)ccc3NC(=O)C2C1 (stereo not shown) [Compound A91] .
OUT: -6

###

# EXPERIMENTAL_SYSTEM: recombinant autotaxin (Homo sapiens)
# ASSAY_TEXT: Autotaxin test (enzyme test), Amplex Red fluorescence with LPC substrate
# CONDITION_NOTES: autotaxin inhibition (enzyme test)
PROPERTY_MEASURED: IC50

In the examples that follow, each entry is paired with its recorded IC50.
• CC(C)(C)COC(=O)N1CCN2C(=O)c3cc(-c4ccc(Cl)cc4)ccc3NC(=O)C2C1 (stereo not shown) = > 1 µM
• CC(C)(C)CC(=O)N1CCN2C(=O)c3cc(-c4ccc(Cl)cc4F)ccc3N(CCN3CCOCC3)C(=O)C2C1 (stereo not shown) = 0.1 to 1 µM

IN: In one line, give reported IC50 of the entry "CC(C)(C)[C@H](NC1CCNCC1)C(=O)N1CCN2C(=O)c3cc(-c4ccc(Cl)cc4F)ccc3NC(=O)[C@H]2C1" .
OUT: 0.1 to 1 µM

IN: In one line, give reported IC50 of the entry "CN(C)CCN1C(=O)[C@H]2CN(C(=O)CC(C)(C)C)CCN2C(=O)c2cc(-c3ccc(Cl)cc3F)ccc21" .
OUT: > 1 µM

IN: In one line, give reported IC50 of the entry "CC(C)[C@H](N)C(=O)N1CCN2C(=O)c3cc(-c4ccc(Cl)cc4F)ccc3NC(=O)[C@@H]2C1" .
OUT: > 1 µM

IN: In one line, give reported IC50 of the entry CO[C@H](C(=O)N1CCN2C(=O)c3cc(-c4ccc(Cl)cc4)ccc3NC(=O)C2C1)C(C)(C)C (stereo partly shown) .
OUT: 0.1 to 1 µM

IN: In one line, give reported IC50 of the entry CC(C)(C)CC(=O)N1CCN2C(=O)c3cc(-c4ccc(Cl)cc4Cl)ccc3NC(=O)C2C1 (stereo not shown) .
OUT: > 1 µM
